test.target: T1, huCD98hc ECD Avi-His (human, UniProt P08195 105-529)
T1 construct: biotinylated on the Avi tag where captured on streptavidin; also called Human CD98-AVI-His; Human CD98hc-AVI-His
T1 sequence: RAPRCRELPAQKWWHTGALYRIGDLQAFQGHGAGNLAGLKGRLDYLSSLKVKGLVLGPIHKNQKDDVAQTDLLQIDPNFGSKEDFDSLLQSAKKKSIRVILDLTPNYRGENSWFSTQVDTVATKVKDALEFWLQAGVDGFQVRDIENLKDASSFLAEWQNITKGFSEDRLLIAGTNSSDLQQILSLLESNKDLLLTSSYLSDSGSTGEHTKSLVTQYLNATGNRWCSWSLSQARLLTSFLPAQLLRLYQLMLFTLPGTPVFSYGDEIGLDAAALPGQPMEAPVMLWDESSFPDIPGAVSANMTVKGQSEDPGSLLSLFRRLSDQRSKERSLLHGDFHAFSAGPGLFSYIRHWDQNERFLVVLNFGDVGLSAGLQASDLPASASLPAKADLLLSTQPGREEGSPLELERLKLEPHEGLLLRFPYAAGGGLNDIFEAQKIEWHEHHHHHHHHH
test.details: SPR, Biacore T200, anti-kappa capture
experimental.readout: pKd
Numbers only, as −log10 of the molar value.

Look over these answered cases.
1) CD98hc.04.064.1a (humanized, 2+1 format) (bispecific antibody, tested as 2+1 bispecific (scFv on an IgG)) scFv: QVQLVQSGAEVKKPGASVKVSCKASGYTFTSYWMNWVRQAPGQGLEWMGIIDPSDSETHYAQKFQGRVTMTVDKSTSTVYMELSSLRSEDTAVYYCARASYGKGYFDYWGQGTLVTVSSGGSEGKSSGSGSESKSTGGSDIVMTQSPDSLAVSLGERATINCKSSQSLLNNINQKNYLAWYQQKPGQPPKLLIYFASTRESGVPDRFSGSGSGTDFTLTISSLQAEDVAVYYCQQHYSSPFTFGGGTKVEIK | 7.51
2) CD98hc.04.064.4b (humanized, 2+1 format) (bispecific antibody, tested as 2+1 bispecific (scFv on an IgG)) scFv: QVQLVQSGAEVKKPGASVKVSCKASGYTFTSYWMNWVRQAPGQGLEWMGIIDPSDSETNYAQKFQGRVTSTVDKSISTAYMELSRLRSDDTVVYYCARASYGKGYFDYWGQGTLVTVSSGGSEGKSSGSGSESKSTGGSDIVMTQSPDSLAVSLGERATINCKSSQSLLNNINQKNYLAWYQQKPGQPPKLLIYFASTRESGVPDRFSGSGSGTDFTLTISSLQAEDVAVYFCQQHYSSPFTFGGGTKVEIK | 7.52
3) CD98hc.04.064.1d (humanized, 2+1 format) (bispecific antibody, tested as 2+1 bispecific (scFv on an IgG)) scFv: QVQLVQSGAEVKKPGASVKVSCKASGYTFTSYWMNWVRQAPGQGLEWMGIIDPSDSETSYAQKFQGRVTMTVDKSTSTVYMELSSLRSEDTAVYYCARASYGKGYFDYWGQGTLVTVSSGGSEGKSSGSGSESKSTGGSDIVMTQSPDSLAVSLGERATINCKSSQSLLNNINQKNYLAWYQQKPGQPPKLLIYFASTRESGVPDRFSGSGSGTDFTLTISSLQAEDVAVYYCQQHYSSPFTFGGGTKVEIK | 7.62
4) CD98hc.04.064.4c (humanized, 2+1 format) (bispecific antibody, tested as 2+1 bispecific (scFv on an IgG)) scFv: QVQLVQSGAEVKKPGASVKVSCKASGYTFTSYWMHWVRQAPGQGLEWMGIIDPSDSETNYAQKFQGRVTSTVDKSISTAYMELSRLRSDDTVVYYCARASYGKGYFDYWGQGTLVTVSSGGSEGKSSGSGSESKSTGGSDIVMTQSPDSLAVSLGERATINCKSSQSLLNNINQKNYLAWYQQKPGQPPKLLIYFASTRESGVPDRFSGSGSGTDFTLTISSLQAEDVAVYYCQQHYSSPFTFGGGTKVEIK | 7.77

Quick batch: pKd for everything below.
1. CD98hc.04.064.1e (humanized, 2+1 format) (bispecific antibody, tested as 2+1 bispecific (scFv on an IgG)) scFv: QVQLVQSGAEVKKPGASVKVSCKASGYTFTSYWMHWVRQAPGQGLEWMGIIDPSDSETHYAQKFQGRVTMTVDKSTSTVYMELSSLRSEDTAVYYCARASYGKGYFDYWGQGTLVTVSSGGSEGKSSGSGSESKSTGGSDIVMTQSPDSLAVSLGERATINCKSSQSLLNNINQKNYLAWYQQKPGQPPKLLIYFASTRESGVPDRFSGSGSGTDFTLTISSLQAEDVAVYYCQQHYSSPFTFGGGTKVEIK
2. CD98hc.04.064.4a (humanized, 2+1 format) (bispecific antibody, tested as 2+1 bispecific (scFv on an IgG)) scFv: QVQLVQSGAEVKKPGASVKVSCKASGYTFTSYWMNWVRQAPGQGLEWMGIIDPSDSETNYAQKFQGRVTSTVDKSISTAYMELSRLRSDDTVVYYCARASYGKGYFDYWGQGTLVTVSSGGSEGKSSGSGSESKSTGGSDIVMTQSPDSLAVSLGERATINCKSSQSLLNNINQKNYLAWYQQKPGQPPKLLIYFASTRESGVPDRFSGSGSGTDFTLTISSLQAEDVAVYYCQQHYSSPFTFGGGTKVEIK
3. CD98hc.04.064.4d (humanized, 2+1 format) (bispecific antibody, tested as 2+1 bispecific (scFv on an IgG)) scFv: QVQLVQSGAEVKKPGASVKVSCKASGYTFTSYWMHWVRQAPGQGLEWMGIIDPSDSETSYAQKFQGRVTMTRDTSTSTVYMELSSLRSEDTAVYYCARASYGKGYFDYWGQGTLVTVSSGGSEGKSSGSGSESKSTGGSDIQMTQSPSSLSASVGDRVTITCRASQSLLNNINQKNYLAWYQQKPGKAPKLLIYFASSLQSGVPSRFSGSGSGTDFTLTISSLQPEDFATYYCQQHYSSPFTFGGGTKVEIK

1. 7.89
2. 7.47
3. 7.92

Value source: patent US20250270341A1
